Molecular target: Angiotensin II receptor (Rattus norvegicus, UniProt P29089+P25095+P35351)
Assay: In vitro antagonist activity (ANG II like) expressed as percent activity relative to ANG II in rabbit aorta strip assay.
Assay type: functional, tissue-based
Square brackets hold non-standard residues; d marks the D form. Peptide text beside a SMILES is read from it. Ac5c = NC1(C(=O)O)CCCC1; Aib = CC(C)(N)C(=O)O; Sar = CNCC(=O)O
measurement-label: pA2

molecule=CNCC(=O)N[C@@H](CCCN=C(N)N)C(=O)N[C@H](C(=O)N[C@@H](Cc1ccc(O)cc1)C(=O)N1CSC(C)(C)[C@H]1C(=O)N[C@@H](Cc1c[nH]cn1)C(=O)N1CCC[C@H]1C(=O)N[C@H](Cc1ccccc1)C(=O)O)C(C)C value_measured=7.5
molecule="CC[C@H](C)[C@H](NC(=O)[C@@H]1CCCN1C(=O)[C@H](Cc1c[nH]cn1)NC(=O)[C@@H](NC(=O)[C@H](Cc1ccc(O)cc1)NC(=O)[C@@H]1CCCN1C(=O)[C@H](CCCN=C(N)N)NC(=O)CNC)[C@@H](C)CC)C(=O)O (H-[Sar]RPYIHPI-OH)" value_measured=7.17
molecule="CC[C@H](C)[C@H](NC(=O)C(C)(C)NC(=O)[C@H](Cc1c[nH]cn1)NC(=O)[C@@H](NC(=O)[C@H](Cc1ccc(O)cc1)NC(=O)[C@@H](NC(=O)[C@H](CCCN=C(N)N)NC(=O)CNC)C(C)C)[C@@H](C)CC)C(=O)O (H-[Sar]RVYIH[Aib]I-OH)" value_measured=8
molecule=CC[C@H](C)[C@H](NC(=O)[C@@H]1CCCN1C(=O)[C@H](Cc1c[nH]cn1)NC(=O)[C@H]([C@@H](C)CC)N(C)C(=O)[C@H](Cc1ccc(O)cc1)NC(=O)[C@@H](NC(=O)[C@H](CCCN=C(N)N)NC(=O)CNC)C(C)C)C(=O)O value_measured=7.64
molecule=CC[C@H](C)[C@H](NC(=O)[C@H](Cc1ccc(O)cc1)NC(=O)[C@@H](NC(=O)[C@H](CCCN=C(N)N)NC(=O)CNC)C(C)C)C(=O)N[C@@H](Cc1c[nH]cn1)C(=O)N1CCC[C@H]1C(=O)NC(C)(C)C(=O)O value_measured=8.7
molecule="CC[C@H](C)[C@H](NC(=O)[C@@H]1CCCN1C(=O)[C@H](Cc1c[nH]cn1)NC(=O)C1(NC(=O)[C@H](Cc2ccc(O)cc2)NC(=O)[C@@H](NC(=O)[C@H](CCCN=C(N)N)NC(=O)CNC)C(C)C)CCCC1)C(=O)O (H-[Sar]RVY[Ac5c]HPI-OH)" value_measured=8.3
molecule="CC[C@H](C)[C@H](NC(=O)[C@@H]1CCCN1C(=O)[C@H](Cc1c[nH]cn1)NC(=O)[C@@H](NC(=O)[C@H](Cc1ccc(O)cc1)NC(=O)[C@H](C)NC(=O)[C@H](CCCN=C(N)N)NC(=O)CNC)[C@@H](C)CC)C(=O)O (H-[Sar]RAYIHPI-OH)" value_measured=8.3
